# system name: T1, human SPNS2 (human, UniProt Q8IVW8 1-549)
# T1 construct: S1P transporter; in Cell ELISA and S1P assays on Flp-in 293 cells that also express human SphK1; also called Spinster homolog 2; native type
# T1 sequence: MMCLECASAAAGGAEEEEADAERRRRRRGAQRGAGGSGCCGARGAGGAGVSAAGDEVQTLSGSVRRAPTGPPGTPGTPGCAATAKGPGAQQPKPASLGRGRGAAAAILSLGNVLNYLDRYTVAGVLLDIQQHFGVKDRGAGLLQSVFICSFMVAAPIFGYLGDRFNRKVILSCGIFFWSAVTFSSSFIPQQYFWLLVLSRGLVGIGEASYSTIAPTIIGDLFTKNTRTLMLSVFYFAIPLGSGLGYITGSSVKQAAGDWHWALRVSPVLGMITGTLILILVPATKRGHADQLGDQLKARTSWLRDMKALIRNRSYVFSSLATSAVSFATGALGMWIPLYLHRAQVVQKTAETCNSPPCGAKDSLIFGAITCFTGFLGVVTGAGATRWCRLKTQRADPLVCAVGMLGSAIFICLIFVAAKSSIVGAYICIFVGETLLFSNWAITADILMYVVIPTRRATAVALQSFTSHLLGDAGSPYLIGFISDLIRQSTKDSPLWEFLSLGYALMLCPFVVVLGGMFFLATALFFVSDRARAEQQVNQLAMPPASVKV
# assay info: Cell ELISA
reported property: pEC50

Query: Param item = 65-0810G (antibody, IgG2b, V domains shown) VH: EVHLVESGGGLVQPGRSMKLSCTASGFTFNNYYMAWVRQAPTKGLEWVASISTGGGYTYYRDSVKGRFTISRDNTGNTLYLQMDSLRSEDTATYYCARCWELPYWGQGVMVTVSS VL: QFVLTQPNSVSTNLGSTVKLSCRRSSGNIGNNYVNWYRQHEGRSPTTMIYRDDTRPDGVPNRFSGSIDRSSNSALLTINNVRPEDEAYYFCQSYSGSIYIFGGGTKLTVL ; retrieve measured pEC50.
Response: 8.36 pEC50 (M)

Query: Param item = 93-1310F (antibody, IgG2b, V domains shown) VH: EVQLVETGGGLVQPGSSLKLSCATSGFTFSDTWMSWVRQAPGKGLEWVALIKDKNSNYEANYAESVKGRFTISRDDSKRRVYLQMFTLRDQDTATYYCTSHEDFYYYSSYYFDYWGHGVMVTVSS VL: DIVLTQSPATLSVTPGESVSLSCRASQGISTSIHWYQQKSNGSPRLLIKYASQSISGIPSRFSGSGSGTDFTLRINRVESEDFSVYYCQQTYSLPLTFGSGTRLEIKR ; retrieve measured pEC50.
Response: 8.56 pEC50 (M)

Query: Param item = 84-1111F (antibody, IgG2b, V domains shown) VH: EVQVVESGGGLVQPGRSMKLSCAALGFTFRDYYMAWVRQTPTKGLEWVAAISTGGGNTYYRDSVKGRFTISRDNAKSTLYLKMDSLRSDDTATYYCARNPYGNYFDYWGQGVMVTVSS VL: QFVLSQPNSVSTNLGSTVKLSCKRSTGNIGSNYVHWYQRHEGRSPTTMIYRDDKRPNGVPDRFSGSIDRSSNSALLTINNVQTEDEADYFCQSYSGGMYLFGGGTTLTVL ; retrieve measured pEC50.
Response: 8.75 pEC50 (M)
